Reference source for all entries: PubChem BioAssay (NCI)

- Test system: NCI-H522 lung
- experiment.description: NCI-60 one-dose screen, 48 h
- condition.details: 10 µM unless noted
The panel holds about 83,000 compounds, 20% with a hit somewhere; the sample as a whole holds those more often. The source made the active and inactive calls. How the source made its calls: active means growth percent below 10; inactive means the rest.
Labels: active, inactive

>  <compound>
O=C(N(c1ccccc1)c1ccccc1)n1ccc2nc(Cl)nc(Cl)c21

>  <measurement.target>
NCI-H522 lung

>  <label.value>
inactive

$$$$
>  <compound>
CCc1nc(N)nc(N)c1C#CC(C)c1ccc(-c2ccncc2)cc1Cl (stereo not given)

>  <measurement.target>
NCI-H522 lung

>  <label.value>
active

$$$$
>  <compound>
CC1=C(O)C(=O)C(C(C#N)(C#N)C(C#N)C#N)C1 (stereo not given)

>  <measurement.target>
NCI-H522 lung

>  <label.value>
inactive

$$$$
>  <compound>
Cc1ccc(O)c(N2C(=NCc3ccco3)NS(=O)(=O)c3cnccc32)c1

>  <measurement.target>
NCI-H522 lung

>  <label.value>
inactive

$$$$
>  <compound>
O=C1NC(=Nc2ccc(O)cc2)S/C1=C\c1cccc(Cl)c1

>  <measurement.target>
NCI-H522 lung

>  <label.value>
inactive

$$$$
>  <compound>
CCOC(=O)c1c(CN2CCN(C)CC2)nc2ccc(Cl)cc2c1-c1ccccc1

>  <measurement.target>
NCI-H522 lung

>  <label.value>
inactive

$$$$
>  <compound>
O=C1c2cccc3cccc(c23)C(=O)N1CCCCCN1CCN(CCCCCOc2ccc(-c3nc4ccc(N5CCOCC5)cc4[nH]3)cc2)CC1

>  <measurement.target>
NCI-H522 lung

>  <label.value>
inactive

$$$$
>  <compound>
O=[N+]([O-])c1cnc(N2CCN(CC3CC3)CC2)nc1N1CCN(CC2CC2)CC1

>  <measurement.target>
NCI-H522 lung

>  <label.value>
inactive

$$$$
>  <compound>
Cc1nc(Nc2ccc(F)c(Cl)c2)sc1C(=O)O

>  <measurement.target>
NCI-H522 lung

>  <label.value>
active

$$$$
>  <compound>
COc1ccc(-n2nc(C)c3c(Oc4ccc(NC(=O)Nc5c(Cl)cccc5Cl)cc4)ncnc32)cc1

>  <measurement.target>
NCI-H522 lung

>  <label.value>
inactive

$$$$
>  <compound>
COc1cccc(NC(=O)c2sc3nc(C)c(C(C)=O)cc3c2N)c1

>  <measurement.target>
NCI-H522 lung

>  <label.value>
inactive

$$$$
>  <compound>
O=C1Nc2cc(-c3ccc(O)cc3)ccc2/C1=C/c1ccc[nH]1

>  <measurement.target>
NCI-H522 lung

>  <label.value>
active

$$$$
>  <compound>
N#Cc1c(-c2ccc(Cl)cc2)nc(NN=Cc2ccco2)nc1N1CCOCC1

>  <measurement.target>
NCI-H522 lung

>  <label.value>
inactive

$$$$
>  <compound>
OCC(O)c1nc2ccc3[nH]ncc3c2c2c1CCCC2 (stereo not given)

>  <measurement.target>
NCI-H522 lung

>  <label.value>
inactive

$$$$
>  <compound>
C=CC(=O)Nc1cccc(-c2nc(SC)nc(NCCN3CCOCC3)c2C#N)c1

>  <measurement.target>
NCI-H522 lung

>  <label.value>
inactive

$$$$
>  <compound>
Cn1c(=O)[nH]c(=O)c2nc(CCC(=O)NCCC(=O)O)c(=O)[nH]c21

>  <measurement.target>
NCI-H522 lung

>  <label.value>
inactive

$$$$
>  <compound>
O=C1c2ccccc2OC=C(c2ccccc2)N1CCCCNc1ccc(S(=O)(=O)Nc2ncccn2)cc1

>  <measurement.target>
NCI-H522 lung

>  <label.value>
inactive

$$$$
>  <compound>
O=C1/C(=C/C(Cl)=C/c2ccccc2)SC(=S)N1CCc1ccc(O)cc1

>  <measurement.target>
NCI-H522 lung

>  <label.value>
active

$$$$
>  <compound>
CCN(CC)CCCCNc1c2ccc(Cl)cc2nc2ccc(OC)cc12

>  <measurement.target>
NCI-H522 lung

>  <label.value>
active

$$$$
>  <compound>
O=c1cc(/C(=C2/C=CC=N2)c2ccc[nH]2)c2cc(Cl)ccc2o1

>  <measurement.target>
NCI-H522 lung

>  <label.value>
inactive

$$$$
>  <compound>
CC1=C[C@H]2c3c(c(O)c(O)c4oc(-c5ccccc5)cc(=O)c34)[C@H](c3cc(O)c(O)c4oc(-c5ccccc5)cc(=O)c34)[C@H]2C(C)(C)C1

>  <measurement.target>
NCI-H522 lung

>  <label.value>
active

$$$$
>  <compound>
O=C(Nc1ccccc1Cl)c1ccc(NC2=C(Cl)C(=O)N(C3CCCCC3)C2=O)cc1

>  <measurement.target>
NCI-H522 lung

>  <label.value>
inactive

$$$$
>  <compound>
COc1cc(C)c(C2C(C#N)=C(N)Oc3n[nH]c(-c4cccs4)c32)cc1C(C)C (stereo not given)

>  <measurement.target>
NCI-H522 lung

>  <label.value>
inactive

$$$$
>  <compound>
COc1cccc(-c2nc3sccn3c2-c2ccnc(NCCCNS(=O)(=O)c3c(Cl)cccc3Cl)c2)c1

>  <measurement.target>
NCI-H522 lung

>  <label.value>
inactive

$$$$
>  <compound>
COc1cc2c(cc1-c1c(C)noc1C)ncc1nc(C3CCCC3)n([C@H](C)COC(F)F)c12

>  <measurement.target>
NCI-H522 lung

>  <label.value>
inactive

$$$$
>  <compound>
O=C(CCN1C(=O)/C(=C/c2ccc(Cl)cc2)SC1=S)NCCCN1CCOCC1

>  <measurement.target>
NCI-H522 lung

>  <label.value>
inactive

$$$$
>  <compound>
CCOc1ccc(C(C)=O)cc1NC(=O)c1cccc(-c2nnn(CC)n2)c1

>  <measurement.target>
NCI-H522 lung

>  <label.value>
active

$$$$
>  <compound>
Nc1ccc(S(=O)(=O)O)c2ccc(N=Nc3ccc(N=Nc4ccc(S(=O)(=O)O)cc4)c4ccccc34)c(O)c12

>  <measurement.target>
NCI-H522 lung

>  <label.value>
inactive

$$$$
>  <compound>
CCc1nc(N)nc(N)c1C#CC(C)c1cc(-c2ccnc(C)c2)c2oc(C)nc2c1 (stereo not given)

>  <measurement.target>
NCI-H522 lung

>  <label.value>
inactive

$$$$
>  <compound>
CCC#CC[C@H](O)C/C=C1/C(=O)C=C[C@@H]1C/C=C\CCCC(=O)OC

>  <measurement.target>
NCI-H522 lung

>  <label.value>
active

$$$$
>  <compound>
O=C(COc1ccc(/C=C2\COc3ccccc3C2=O)cc1)Nc1nccs1

>  <measurement.target>
NCI-H522 lung

>  <label.value>
inactive

$$$$
>  <compound>
CC(=O)c1cc2c(N)c(C(=O)Nc3cccc4ccccc34)sc2nc1C

>  <measurement.target>
NCI-H522 lung

>  <label.value>
inactive

$$$$
>  <compound>
CN(Cc1cc(Cl)cc(Cl)c1O)Cc1cc(Cl)cc(Cl)c1O

>  <measurement.target>
NCI-H522 lung

>  <label.value>
inactive

$$$$
>  <compound>
O=C1CSC(=S)N1CCc1ccc(O)cc1

>  <measurement.target>
NCI-H522 lung

>  <label.value>
inactive

$$$$
>  <compound>
C=C1C(=O)O[C@H]2[C@H]1CC/C(COC(=O)NCc1ccc(OC)c(OC)c1)=C\CC[C@@]1(C)O[C@@H]21

>  <measurement.target>
NCI-H522 lung

>  <label.value>
active

$$$$
>  <compound>
COc1cc2nc(N3CCCC3)nc(NCc3ccccc3)c2cc1OC

>  <measurement.target>
NCI-H522 lung

>  <label.value>
inactive

$$$$
>  <compound>
NC(=NC1C2CC3CC(C2)CC1C3)Nc1ccc(I)cc1 (stereo not given)

>  <measurement.target>
NCI-H522 lung

>  <label.value>
inactive

$$$$
>  <compound>
CCOc1nc(-c2ccccc2)cc2c(O)c(C(=O)O)[nH]c(=O)c12

>  <measurement.target>
NCI-H522 lung

>  <label.value>
inactive

$$$$
>  <compound>
COc1ccc(-n2nc(C)c3c(Nc4ccc(NC(=O)Nc5cccc(C(F)(F)F)c5)cc4)ncnc32)cc1

>  <measurement.target>
NCI-H522 lung

>  <label.value>
active

$$$$
>  <compound>
COc1cc(C(=O)Oc2ccccc2OC(=O)c2cc(OC)c(OC)c(OC)c2)cc(OC)c1OC

>  <measurement.target>
NCI-H522 lung

>  <label.value>
inactive

$$$$

---

- Test system: MDA-MB-231 breast
- experiment.description: NCI-60 one-dose screen, 48 h
- condition.details: 10 µM unless noted
Compounds without any hit were thinned out: in the full panel of roughly 83,000, 20% have a hit. The source made the active and inactive calls. The calls were made as follows: active = growth percent below 10; inactive = the rest.
Labels: y = active, n = inactive

>  <compound>
CC(=O)c1cc2c(N)c(C(=O)Nc3cccc4ccccc34)sc2nc1C

>  <label.value>
n

$$$$
>  <compound>
COc1ccc(S(=O)(=O)N2CC3(COC3)C2)cc1NC(=O)c1[nH]c(C)c2c1CCCCC2=O

>  <label.value>
n

$$$$
>  <compound>
O=C1Nc2c(ccc(Cl)c2Cl)/C1=C\c1cc(C(F)(F)F)cc(C(F)(F)F)c1

>  <label.value>
y

$$$$
>  <compound>
O=C1NC(=O)C(c2ccc(Cl)cc2Cl)N1 (stereo not given)

>  <label.value>
n

$$$$
>  <compound>
CC1=C/C(=C(\c2ccc(N(C)C)cc2)c2ccc([N+](C)(C)C)cc2)C=CC1=[N+](C)C

>  <label.value>
n

$$$$
>  <compound>
COc1ccc(S(=O)(=O)N2CCCCC2)cc1NC(=O)c1[nH]c(C)c2c1CCCCC2=O

>  <label.value>
n

$$$$
>  <compound>
O=CNc1ccc2c(c1)Cc1cccc(NC=O)c1-2

>  <label.value>
n

$$$$
>  <compound>
N#Cc1cnn(-c2nc3c(Cl)cccc3s2)c1N

>  <label.value>
n

$$$$
>  <compound>
O=C(/C=C/c1ccccc1)c1ccc(O)c(CN2CCN(c3cc4c(cc3F)c(=O)c(C(=O)O)cn4C3CC3)CC2)c1

>  <label.value>
n

$$$$
>  <compound>
c1ccc(-c2cc3n4c(-c5ccccc5)nn(-c5ccccc5)c4cnc-3n2)cc1

>  <label.value>
n

$$$$
